The measured values listed here are drawn from patent US20200405697A1.

So I've got IC50 readings for human RNR (histidine tagged human M1 and human M2 proteins) (Homo sapiens, UniProt P23921), take a look.
measured_property: IC50 (nM)

[
  {
    "molecule": "Cc1ccc(F)c([C@@H](C)[C@H](NS(=O)(=O)c2ccc(C3CC3)cc2C(N)=O)c2n[nH]c(=O)o2)c1C",
    "assayed_system": "human RNR (histidine tagged human M1 and human M2 proteins) (Homo sapiens, UniProt P23921)",
    "val": 130
  },
  {
    "molecule": "Cc1ccc(F)c([C@@H](C)[C@H](NS(=O)(=O)c2ccc(F)c3c2OCCC3(C)O)c2n[nH]c(=O)o2)c1C (single isomer, unassigned) [Example 224A]",
    "assayed_system": "human RNR (histidine tagged human M1 and human M2 proteins) (Homo sapiens, UniProt P23921)",
    "val": 90
  },
  {
    "molecule": "Cc1ccc(F)c([C@@H](C)[C@H](NS(=O)(=O)c2ccc(Cl)c3c2OCCC3(O)C(F)(F)F)c2n[nH]c(=O)o2)c1C (single isomer, unassigned) [Example 220A]",
    "assayed_system": "human RNR (histidine tagged human M1 and human M2 proteins) (Homo sapiens, UniProt P23921)",
    "val": 60
  },
  {
    "molecule": "Cc1ccc(F)c([C@@H](C)[C@H](NS(=O)(=O)c2c(F)cc(Cl)cc2C(N)=O)c2n[nH]c(=O)o2)c1C",
    "assayed_system": "human RNR (histidine tagged human M1 and human M2 proteins) (Homo sapiens, UniProt P23921)",
    "val": 140
  },
  {
    "molecule": "Cc1c(Cl)ccc(F)c1[C@@H](C)[C@H](NS(=O)(=O)c1ccc(Cl)c2c1OCCC2(C)O)c1n[nH]c(=O)o1 (single isomer, unassigned) [Example 209B]",
    "assayed_system": "human RNR (histidine tagged human M1 and human M2 proteins) (Homo sapiens, UniProt P23921)",
    "val": 180
  },
  {
    "molecule": "COC(=O)c1c(Cl)ccc(S(=O)(=O)N[C@H](c2n[nH]c(=S)o2)[C@H](C)c2cccc3c2CCC3)c1Cl",
    "assayed_system": "human RNR (histidine tagged human M1 and human M2 proteins) (Homo sapiens, UniProt P23921)",
    "val": 310
  },
  {
    "molecule": "Cc1ccc(F)c([C@@H](C)[C@H](NS(=O)(=O)c2ccc(Cl)c3c2OCCC3O)c2n[nH]c(=O)o2)c1C (single isomer, unassigned) [Example 235B]",
    "assayed_system": "human RNR (histidine tagged human M1 and human M2 proteins) (Homo sapiens, UniProt P23921)",
    "val": 70
  },
  {
    "molecule": "Cc1c(Br)ccc(F)c1[C@@H](C)[C@H](NS(=O)(=O)c1ccc(Cl)c2c1OCCC2(C)O)c1n[nH]c(=O)o1 (single isomer, unassigned) [Example 222A]",
    "assayed_system": "human RNR (histidine tagged human M1 and human M2 proteins) (Homo sapiens, UniProt P23921)",
    "val": 80
  },
  {
    "molecule": "Cc1ccc(F)c([C@@H](C)[C@H](NS(=O)(=O)c2ccc([N+](=O)[O-])cc2)c2n[nH]c(=O)o2)c1C",
    "assayed_system": "human RNR (histidine tagged human M1 and human M2 proteins) (Homo sapiens, UniProt P23921)",
    "val": 270
  },
  {
    "molecule": "Cc1ccc(F)c([C@@H](C)[C@H](NS(=O)(=O)c2ccc(Cl)cc2C(=O)N2CCC2)c2n[nH]c(=O)o2)c1C",
    "assayed_system": "human RNR (histidine tagged human M1 and human M2 proteins) (Homo sapiens, UniProt P23921)",
    "val": 410
  },
  {
    "molecule": "Cc1c(Br)ccc(F)c1[C@@H](C)[C@H](NS(=O)(=O)c1ccc(Cl)c2c1OCCC2(C)N)c1n[nH]c(=O)o1 (stereo partly shown)",
    "assayed_system": "human RNR (histidine tagged human M1 and human M2 proteins) (Homo sapiens, UniProt P23921)",
    "val": 60
  },
  {
    "molecule": "Cc1c(Br)ccc(F)c1[C@@H](C)[C@H](NS(=O)(=O)c1ccc(Cl)c2c1OCCC2(C)O)c1n[nH]c(=O)o1 (single isomer, unassigned) [Example 222B]",
    "assayed_system": "human RNR (histidine tagged human M1 and human M2 proteins) (Homo sapiens, UniProt P23921)",
    "val": 60
  },
  {
    "molecule": "Cc1c(Br)ccc(F)c1[C@@H](C)[C@H](NS(=O)(=O)c1ccc(Cl)c2c1OCCC2O)c1n[nH]c(=O)o1 (single isomer, unassigned) [Example 243B]",
    "assayed_system": "human RNR (histidine tagged human M1 and human M2 proteins) (Homo sapiens, UniProt P23921)",
    "val": 100
  }
]
